- Test system: OVCAR-5 ovarian
- EXPERIMENT: NCI tumour cell line growth inhibition, 48 h
I'd be grateful if you could share measured TGI for these entries.

# input Write down the reported TGI of CCOC(=O)CC(C)C(C#N)(OP1(=O)OC(c2ccccc2)C(C)N1C)c1ccccc1 (stereo unspecified) , test system: OVCAR-5 ovarian.
# output > 100 µM

# input Write down the reported TGI of COc1ccccc1-c1cc2c3c(nc4ccccc42)C(=O)c2cccnc2-c3n1 , test system: OVCAR-5 ovarian.
# output 34 µM

# input Write down the reported TGI of COc1cc(OC)c(-c2cc(=O)c3c(OC)c(OC)c(OC)c(OC)c3o2)cc1OC , test system: OVCAR-5 ovarian.
# output > 100 µM

# input Write down the reported TGI of CCOn1cc(C[C@@]2(O)C(=O)OC3[C@@H](O)CO[C@@]32O)c2ccccc21 (stereo partly specified) , test system: OVCAR-5 ovarian.
# output > 100 µM

# input Write down the reported TGI of COc1ccc(-c2cc3cccc(OC)c3c(=O)o2)cc1OC , test system: OVCAR-5 ovarian.
# output > 100 µM

# input Write down the reported TGI of COc1ccc2c(c1)C(=O)c1c-2c(NCCCN(C)C)nc2ccccc12 , test system: OVCAR-5 ovarian.
# output 21.9 µM

# input Write down the reported TGI of COc1cc2c(-c3nc4cc(Cl)c(F)cc4s3)cc(=O)oc2c(C)c1OC , test system: OVCAR-5 ovarian.
# output 3.39 µM

# input Write down the reported TGI of CC(C)(C)C1CC[C@H]2c3c([nH]c4ccc(Br)cc34)[C@H]3C(=O)N(c4ccccc4)C(=O)[C@H]3[C@H]2C1 (stereo partly specified) , test system: OVCAR-5 ovarian.
# output > 100 µM

# input Write down the reported TGI of COc1cc2c(cc1OC)C1c3ccccc3C(C#N)(C2)N(C(=O)c2ccccc2)C1O (stereo unspecified) , test system: OVCAR-5 ovarian.
# output > 100 µM

# input Write down the reported TGI of CO/C(=N\N=C(/C)C(F)(F)F)c1ccncc1 , test system: OVCAR-5 ovarian.
# output > 100 µM

# input Write down the reported TGI of Cc1nc2sc(C(=O)Nc3cccc4ccccc34)c(N)c2cc1C(C)O (stereo unspecified) , test system: OVCAR-5 ovarian.
# output > 50 µM

# input Write down the reported TGI of COc1ccc2c(c1)O/C(=C\c1cccc(OCC(=O)Nc3nc4ccccc4s3)c1)C2=O , test system: OVCAR-5 ovarian.
# output > 100 µM

# input Write down the reported TGI of CC1C(c2ccc(N(C)C)cc2)c2cc3c(cc2OC1N1CCCC1)OCO3 (stereo unspecified) , test system: OVCAR-5 ovarian.
# output > 100 µM

# input Write down the reported TGI of OCC(O)CC[CH2][Sn]([c]1ccccc1)([c]1ccccc1)[c]1ccccc1 (stereo unspecified) , test system: OVCAR-5 ovarian.
# output 28.3 µM

# input Write down the reported TGI of Cc1c(C)c(C)c(-n2c(=O)n(C)c(=O)n2C(C)(C)C)c(C)c1C , test system: OVCAR-5 ovarian.
# output > 100 µM

# input Write down the reported TGI of Cc1cccc(C)c1NC(=O)CCC(=O)NNC(=O)c1cc(O)c2ccccc2c1 , test system: OVCAR-5 ovarian.
# output > 100 µM

# input Write down the reported TGI of COC(=O)OCC1OC(N2C(=O)NC(=O)C(I)C2N=[N+]=[N-])CC1OC(=O)OC (stereo unspecified) , test system: OVCAR-5 ovarian.
# output > 100 µM

# input Write down the reported TGI of c1cc(-c2cscc2-c2ccsc2)cs1 , test system: OVCAR-5 ovarian.
# output > 100 µM

# input Write down the reported TGI of CC1(C)CCC(S(=O)(=O)c2ccc3c(c2)/C(=N\O)c2cc(S(=O)(=O)N4CCC(O)(c5cccc(C(F)(F)F)c5)CC4)ccc2-3)CC1 , test system: OVCAR-5 ovarian.
# output 0.148 µM

# input Write down the reported TGI of Oc1ccc(-c2cc(-c3c(O)cc(O)cc3O)on2)cc1 , test system: OVCAR-5 ovarian.
# output > 100 µM

# input Write down the reported TGI of C=CCN1C(=O)CS/C1=N\NC(=O)c1c(C)nc2sccn12 , test system: OVCAR-5 ovarian.
# output > 100 µM

# input Write down the reported TGI of O=S(=O)(Nc1ccc(-c2nc(-c3cccc(OCCN4CCOCC4)c3)c(-c3ccnc(Br)c3)[nH]2)cc1)c1ccccc1 , test system: OVCAR-5 ovarian.
# output > 100 µM

# input Write down the reported TGI of CCCCN(CC)C(=O)C(=O)C1C(=O)Nc2ccccc2S1=O (stereo unspecified) , test system: OVCAR-5 ovarian.
# output > 100 µM

# input Write down the reported TGI of COc1c2nc(CCl)n(C)c(=O)c2c(OC)c2c(=O)n(C)c(CCl)nc12 , test system: OVCAR-5 ovarian.
# output 7.75 µM

# input Write down the reported TGI of CC(C)CN1CN(c2ccccc2)C2(CCN(CC(C)(c3ccc(F)cc3)C3OCCO3)CC2)C1=O (stereo unspecified) , test system: OVCAR-5 ovarian.
# output 25.7 µM

# input Write down the reported TGI of O=C(C=P(c1ccccc1)(c1ccccc1)c1ccccc1)C12CC3CC(CC(C3)C1)C2 , test system: OVCAR-5 ovarian.
# output 32.7 µM
